Reference for the values: ChEMBL document CHEMBL1156600

- method description: Toxicity in Artemia salina assessed as mortality at 10 ug/ml after 24 hrs
- Assay type: organism-based
- settings: in vivo, read-out: Activity
Kindly state mortality at 24 h, 10 ug/ml for each of the entries shown.
Lab book: enter the figure in %, no units written.

Entry COC(=O)[C@@H](C)[C@@H]1CC[C@](C)(CCC(=O)C(C)(C)CCCC(C)=O)OO1 [DIACARPEROXIDE B] , mortality at 24 h, 10 ug/ml reported as 45

Just so you know, measured mortality at 24 h, 10 ug/ml for CCCC(O)CCC(C)(O)CC/C=C(\C)CCC1=C(C)CCCC1(C)C (centres undefined) [DIACARDIOL A] came out at 20

Documented mortality at 24 h, 10 ug/ml of C=C1CCCC(C)(C)C1(O)CC/C(C)=C/CC[C@]1(C)CC[C@H]([C@@H](C)C(=O)OC)OO1 (some centres undefined) [EPIMUQUBILIN B] : 45

The reported mortality at 24 h, 10 ug/ml of the molecule `COC(=O)[C@H](C)[C@@H]1CC[C@@](C)(CCC2=C(C)CCCC2(C)C)OO1` was 25

Measured mortality at 24 h, 10 ug/ml of COC(=O)[C@H](C)[C@H]1CC[C@@](C)(CCC2=C(C)CCCC2(C)C)OO1 [NUAPAPUIN A METHYL ESTER] : 100

The molecule identified as CC1=C(CC/C(C)=C/CC[C@@]2(C)CC[C@@H]([C@H](C)C(=O)O)OO2)C(C)(C)CCC1 [EPIMUQUBILIN A] registered its mortality at 24 h, 10 ug/ml at 25

response.value for COC(=O)[C@H](C)[C@H]1CC[C@@](C)(CCC2=C(C)C(=O)C[C@@H]3C(C)(C)CCC[C@@]23C)OO1 [DIACARPEROXIDE G] (field: mortality at 24 h, 10 ug/ml) = 50

mortality at 24 h, 10 ug/ml for COC(=O)[C@H](C)[C@H]1CC[C@@](C)(CCC2=C(C)C(=O)CCC2(C)C)OO1 [DIACARPEROXIDE A] is 35

For reference, reported mortality at 24 h, 10 ug/ml for COC(=O)[C@H](C)[C@@H]1CC[C@@](C)(CCC(=O)C(C)(C)CCCC(C)=O)OO1 [DIACARPEROXIDE C] stands at 35
